Assay Target: OsWRKY34 (Oryza sativa, UniProt Q0JBA9 1-250)
Sequence (Q0JBA9 entry or part of it): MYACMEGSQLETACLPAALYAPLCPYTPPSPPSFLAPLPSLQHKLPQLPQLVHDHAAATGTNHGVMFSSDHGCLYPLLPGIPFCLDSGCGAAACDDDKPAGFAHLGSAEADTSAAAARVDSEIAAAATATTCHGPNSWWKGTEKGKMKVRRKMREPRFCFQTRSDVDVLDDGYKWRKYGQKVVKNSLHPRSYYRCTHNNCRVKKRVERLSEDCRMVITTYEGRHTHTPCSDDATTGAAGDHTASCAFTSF
Experiment Notes: protein-binding microarray (RPBM); PBS, 2% BSA, 51.3 ng/ul salmon testes DNA, 50 uM zinc acetate, 200 nM TF, 25 C, 1 h; high values mean tight binding
Run Conditions: protein: recombinant; tags: N-terminal polyhistidine and DsRed monomer fusion (pET32a); label: CyDye5-dUTP incorporated in the synthesized complementary strand; 3' TTTTT single-stranded linker to array surface; dsDNA, one strand shown
The full ranking holds about 68,000 sequences; the median of “fluorescence intensity (a.u.)” is about 9,100, and the highest 2% start at about 16,000. Only a selection was taken, and the highest values are over-represented in it overall.
The following sequences are shown together with reported binding signal values.

Example entries begin here.
q: Which value of binding signal has been reported for TGCGGGGCGCAAGGCGCGCGGTAGGGGAGGGGTTAGCGCTCGGAGTCACCTAGTGCAG in the records?
a: 8190 fluorescence intensity (a.u.)

q: Which value of binding signal has been reported for AATGTATGACGCCGTTGACTTTTTATCAAACGTTTGACCACGGAGTCACCTAGTGCAG in the records?
a: 34800 fluorescence intensity (a.u.)

q: Which value of binding signal has been reported for CGGAGGCATGGGGAGGCTGCTGCGGCGCCAATTGTGGCCACGGAGTCACCTAGTGCAG in the records?
a: 8860 fluorescence intensity (a.u.)

q: Which value of binding signal has been reported for GGCCGGTAGGGGTAGAACGGTCATTTCGTGCGCGGGGAGGCGGAGTCACCTAGTGCAG in the records?
a: 9810 fluorescence intensity (a.u.)

Now for the sequence whose binding signal we want.
q: Which value of binding signal has been reported for GGGAGCGGGTGGGAGTGGCCGGCGCGGAGGACGACGGCGGCGGAGTCACCTAGTGCAG in the records?
a: 8280 fluorescence intensity (a.u.)

----------
Assay Target: OsWRKY34 (Oryza sativa, UniProt Q0JBA9 1-250)
Experiment Notes: protein-binding microarray (RPBM); PBS, 2% BSA, 51.3 ng/ul salmon testes DNA, 50 uM zinc acetate, 200 nM TF, 25 C, 1 h; high values mean tight binding
Run Conditions: protein: recombinant; tags: N-terminal polyhistidine and DsRed monomer fusion (pET32a); label: CyDye5-dUTP incorporated in the synthesized complementary strand; 3' TTTTT single-stranded linker to array surface; dsDNA, one strand shown
Whole data set: some 68,000 sequences, median “fluorescence intensity (a.u.)” near 9,100, cut for the highest 2% near 16,000. Many of the other results were omitted from the sample, so the highest values are more common in it than they were.
The following sequences are shown together with reported binding signal values.

q: Which value of binding signal has been reported for TCCGTAAATCCAACATGGCACTATTACCGCCGGCTTAAATCGGAGTCACCTAGTGCAG in the records?
a: 56000 fluorescence intensity (a.u.)

----------
Assay Target: OsWRKY34 (Oryza sativa, UniProt Q0JBA9 1-250)
Experiment Notes: protein-binding microarray (RPBM); PBS, 2% BSA, 51.3 ng/ul salmon testes DNA, 50 uM zinc acetate, 200 nM TF, 25 C, 1 h; high values mean tight binding
Run Conditions: protein: recombinant; tags: N-terminal polyhistidine and DsRed monomer fusion (pET32a); label: CyDye5-dUTP incorporated in the synthesized complementary strand; 3' TTTTT single-stranded linker to array surface; dsDNA, one strand shown
Whole data set: some 68,000 sequences, median “fluorescence intensity (a.u.)” near 9,100, cut for the highest 2% near 16,000. The list comes from a sample in which the highest values are over-represented; it also holds close analogues and randomly drawn sequences.
Observed Property: binding signal

Example entries begin here.
q: Which value of binding signal has been reported for CACGCACCGCCCATGCGTCCTTATCCACCCACCTCTCCACCGGAGTCACCTAGTGCAG in the records?
a: 8240 fluorescence intensity (a.u.)

q: Which value of binding signal has been reported for AACCCACCTGCACGCACCGTCCTTACCTCTGTTCGATTGACGGAGTCACCTAGTGCAG in the records?
a: 16800 fluorescence intensity (a.u.)

q: Which value of binding signal has been reported for ACGCACCAACCGTCCCTCTTTCGCTCACACTCTTCCTTCCCGGAGTCACCTAGTGCAG in the records?
a: 9700 fluorescence intensity (a.u.)

---
q: Which value of binding signal has been reported for TGAGTCCTTACCTCTCTCTCTCCAATGTTCGTCTGCGGCACGGAGTCACCTAGTGCAG in the records?
a: 8390 fluorescence intensity (a.u.)

q: Which value of binding signal has been reported for CTCCCGAGGAAGATGACGAGGAGTCAGTCAACAGTTGACTCGGAGTCACCTAGTGCAG in the records?
a: 8130 fluorescence intensity (a.u.)

----------
The following sequences are shown together with reported binding signal values.
Assay Target: OsWRKY34 (Oryza sativa, UniProt Q0JBA9 1-250)
Experiment Notes: protein-binding microarray (RPBM); PBS, 2% BSA, 51.3 ng/ul salmon testes DNA, 50 uM zinc acetate, 200 nM TF, 25 C, 1 h; high values mean tight binding
Run Conditions: protein: recombinant; tags: N-terminal polyhistidine and DsRed monomer fusion (pET32a); label: CyDye5-dUTP incorporated in the synthesized complementary strand; 3' TTTTT single-stranded linker to array surface; dsDNA, one strand shown
Whole data set: some 68,000 sequences, median “fluorescence intensity (a.u.)” near 9,100, cut for the highest 2% near 16,000. This excerpt belongs to a sample that is enriched for the highest values.

Example entries begin here.
q: Which value of binding signal has been reported for GACCTTATTTGCATTGATTGACCTTATTTGCATTGATTTTCGGAGTCACCTAGTGCAG in the records?
a: 19700 fluorescence intensity (a.u.)

q: Which value of binding signal has been reported for CGACATCTCTGAAACATTTCTCCTCGACCACGGCAACCCACGGAGTCACCTAGTGCAG in the records?
a: 8630 fluorescence intensity (a.u.)

q: Which value of binding signal has been reported for TTCGTTTCAAAATATTTGACACCGTTGACTTTTTAGCACACGGAGTCACCTAGTGCAG in the records?
a: 25700 fluorescence intensity (a.u.)

q: Which value of binding signal has been reported for TAAGACGAATGGTCAAATATGTGCTAAAAAGTCAACGGTGCGGAGTCACCTAGTGCAG in the records?
a: 13100 fluorescence intensity (a.u.)

q: Which value of binding signal has been reported for AGCTATTTTACATGTTATTTTTTCATTGTTATCGTACTAACGGAGTCACCTAGTGCAG in the records?
a: 10500 fluorescence intensity (a.u.)

q: Which value of binding signal has been reported for AAGTTTAGGGTGAGCAATGTCTGGTTTTCGGGTTCAGGGGCGGAGTCACCTAGTGCAG in the records?
a: 13300 fluorescence intensity (a.u.)

q: Which value of binding signal has been reported for GACGGGTGTTTCTAGGGTTAAGGTTAGGTTTTTTTTTTGACGGAGTCACCTAGTGCAG in the records?
a: 9680 fluorescence intensity (a.u.)

q: Which value of binding signal has been reported for AGACGAACAGTCAAATATGTGCTAAAAAGTCAACGGTGTCCGGAGTCACCTAGTGCAG in the records?
a: 17500 fluorescence intensity (a.u.)

---
q: Which value of binding signal has been reported for GTGTTGTGTTTATTTTTTTATAATATCCATGATTGTAATCCGGAGTCACCTAGTGCAG in the records?
a: 9640 fluorescence intensity (a.u.)

q: Which value of binding signal has been reported for TCCGTTTCGTTTTATTTGACACCGTTGACTTTTTAGCACACGGAGTCACCTAGTGCAG in the records?
a: 19500 fluorescence intensity (a.u.)

----------
Assay Target: OsWRKY34 (Oryza sativa, UniProt Q0JBA9 1-250)
Experiment Notes: protein-binding microarray (RPBM); PBS, 2% BSA, 51.3 ng/ul salmon testes DNA, 50 uM zinc acetate, 200 nM TF, 25 C, 1 h; high values mean tight binding
Run Conditions: protein: recombinant; tags: N-terminal polyhistidine and DsRed monomer fusion (pET32a); label: CyDye5-dUTP incorporated in the synthesized complementary strand; 3' TTTTT single-stranded linker to array surface; dsDNA, one strand shown
In all, about 68,000 sequences were measured (“fluorescence intensity (a.u.)”: median about 9,100, highest 2% from about 16,000 on). This excerpt belongs to a sample that is enriched for the highest values.
Observed Property: binding signal

Example entries begin here.
q: Which value of binding signal has been reported for CACAACTTTTCGTTTTTTATATTTGCACAAATTTTTTAATCGGAGTCACCTAGTGCAG in the records?
a: 8650 fluorescence intensity (a.u.)

q: Which value of binding signal has been reported for TTTTTTGTCGGACTTTTTTCTTCATTTTTTACCTCTTTTGCGGAGTCACCTAGTGCAG in the records?
a: 16900 fluorescence intensity (a.u.)

q: Which value of binding signal has been reported for CCCGAACCCACCACCTCCGCCCATTTCCGCCTCCTCTCGACGGAGTCACCTAGTGCAG in the records?
a: 9190 fluorescence intensity (a.u.)

q: Which value of binding signal has been reported for GTAAGTGTGTGTTCAGTGATGGCTATCGGTGGGTGGGTGGCGGAGTCACCTAGTGCAG in the records?
a: 16600 fluorescence intensity (a.u.)

q: Which value of binding signal has been reported for ATATGTCAAGTTTGGTGGATATAGTTGTTTGGCCTTTTACCGGAGTCACCTAGTGCAG in the records?
a: 11700 fluorescence intensity (a.u.)

q: Which value of binding signal has been reported for GTTCTATTGTACTGGTCAGTTCAGTGGACTCGGTTCTGTTCGGAGTCACCTAGTGCAG in the records?
a: 9260 fluorescence intensity (a.u.)

q: Which value of binding signal has been reported for TGTCGTCCTTCAGGCCAACTTTGTCTTCCTTTGTTTCGACCGGAGTCACCTAGTGCAG in the records?
a: 16400 fluorescence intensity (a.u.)

q: Which value of binding signal has been reported for AATCTGTTTTTTGCTTTTTTGCCCTTTTCACGGTTTTTCCCGGAGTCACCTAGTGCAG in the records?
a: 10800 fluorescence intensity (a.u.)

---
q: Which value of binding signal has been reported for ACCACTTGGCTTTCTTTCTTTTATCCGGTTAGTTCCGGCGCGGAGTCACCTAGTGCAG in the records?
a: 8090 fluorescence intensity (a.u.)

q: Which value of binding signal has been reported for CTACTTATCATCCATTTAAACATGCTACTAGTCATTCTTCCGGAGTCACCTAGTGCAG in the records?
a: 10200 fluorescence intensity (a.u.)

FYI, the data here is from paper PMC7819943.
